B1: HMOX1 (parent)
chain: YHIYVALEEEIERNKESPVFAPVY

variants of: B1; assay: protein stability index of a GFP-peptide fusion (GPS, HEK-293T) (PSI 1-6); higher = more stable; conditions: c terminus: a fixed tail appended;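 further: lentivirally expressed fusions sorted by FACS into six bins by GFP to DsRed ratio, PSI derived from sequencing read proportions per bin multiplied by bin number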
Catalogue of variants with associated protein stability index
Give only the figure.

mutation.name	test.result
V19P	2.35
I3M	1.77
N14C	1.32
A21W	1.7
E16V	2.14
Y4H	2.01

Indicate its recorded protein stability index; the variant in question is V19L
1.7

// fetch protein stability index given entry Y4E
2.09

Return value of protein stability index for input I3L , no commentary.
1.92

Give protein stability index for F20D
2.95

Fill in protein stability index for record Y4I
1.49
